Attribution: ChEMBL document CHEMBL5257038

procedure summary: Selectivity index, ratio of CC50 for cytotoxicity against HEK293T cells to EC50 for antitrypanosomal activity against bloodstream form of Trypanosoma brucei brucei
Assay type: toxicity, cell-based
test conditions: human, read-out: Ratio CC50/EC50
quantity measured: selectivity ratio

Lookup result for C=C1CO[C@H]2/C=C(\C)CC[C@@H]3O[C@@]3(C)CC/C=C(\C)CC[C@@]12O ; measured selectivity ratio: > 20

* * *

procedure summary: Selectivity index, ratio of EC50 for cytotoxicity against African green monkey Vero cells to EC50 for antitrypanosomal activity against epimastigote form of Trypanosoma cruzi
Format: toxicity, cell-based
test conditions: read-out: Ratio EC50
quantity measured: selectivity ratio
Give bare numbers.

Documented selectivity ratio of CCOC1C[C@H](CCCCOCc2ccccc2)O[C@H](Cn2cc([C@@H]3CCC[C@H](CCCCOCc4ccccc4)O3)nn2)C1 (stereo partly specified) : 39
